- study.target: Glutamate receptor ionotropic, kainate (Rattus norvegicus) (UniProt P22756+Q01812+P42260+P42264+Q63273)
- method.summary: Agonist activity at rat KA receptor assessed by generation of membrane current at 100 uM relative to control
- Format: functional
Active and inactive are the calls of the source. The rule behind the calls is not given here.
property: Activity

test.smiles: Cc1cccc2c1O[C@@](C[C@H](N)C(=O)O)(C(=O)O)C2
reported.result: 6%
--
test.smiles: N[C@@H](C[C@@]1(C(=O)O)Cc2ccccc2O1)C(=O)O
reported.result: inactive
--
test.smiles: N[C@@H](C[C@]1(C(=O)O)Cc2ccccc2O1)C(=O)O
reported.result: inactive
--
test.smiles: Cc1ccc2c(c1)C[C@](C[C@H](N)C(=O)O)(C(=O)O)O2
reported.result: inactive
